experimental.target: IRAK-4 (Homo sapiens, UniProt Q9NWZ3)
Construct: Recombinant, full-length IRAK-1 or IRAK-4 enzyme (baculovirus expression system) was added; His (N); made in house
Sequence (Q9NWZ3 whole entry): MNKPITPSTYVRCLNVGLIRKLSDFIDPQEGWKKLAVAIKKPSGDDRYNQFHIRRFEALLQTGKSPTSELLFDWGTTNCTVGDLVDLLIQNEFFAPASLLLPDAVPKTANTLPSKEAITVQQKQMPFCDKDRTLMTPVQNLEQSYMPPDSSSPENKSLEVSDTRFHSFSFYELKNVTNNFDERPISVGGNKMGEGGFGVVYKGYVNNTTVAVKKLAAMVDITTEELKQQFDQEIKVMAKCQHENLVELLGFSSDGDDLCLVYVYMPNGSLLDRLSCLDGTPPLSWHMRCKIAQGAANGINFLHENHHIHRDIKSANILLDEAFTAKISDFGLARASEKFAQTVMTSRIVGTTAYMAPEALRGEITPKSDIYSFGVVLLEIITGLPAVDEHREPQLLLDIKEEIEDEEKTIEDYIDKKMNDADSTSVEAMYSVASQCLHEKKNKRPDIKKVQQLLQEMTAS
method.notes: Enzymatic inhibition assay, IRAK-4 kinase activity (chemiluminescent ELISA)
Assay type: biochemical
conditions: recombinant full-length IRAK-4, 10 μM ATP, 60 min room temperature; read-out: IC50 values (μM) IRAK-4
quantity.kind: IC50

Q: Please report the recorded IC50 for O=C(Nc1nc2ccccc2n1CCO)c1ccc(Cl)c(Cl)c1 [Compound 10] .
Ans: < 10 µM

Q: Also CCn1c(NC(=O)c2ccc(OC)cc2)nc2ccccc21 [Compound 8] ?
Ans: 10 to 30 µM

Q: Record: O=C(Nc1nc2cc(F)ccc2n1[C@H]1CC[C@H](O)CC1)c1cccc([N+](=O)[O-])c1 [Compound 16]
Ans: < 10 µM

Q: Also COC(=O)c1cccc(C(=O)Nc2nc3ccccc3n2CCN2CCOCC2)c1 [Compound 11] , if possible.
Ans: < 10 µM

Q: Same for O=C(Nc1nc2ccccc2n1CCN1CCOCC1)c1cccs1 [Compound 14]
Ans: 10 to 30 µM
